Hi there, I'd appreciate the recorded Glycogenesis (absorbance) for every entry that follows.
Test system: HepG2 hepatocyte
Experiment: Measurement of glycogenesis ability (glycogen content, absorbance at 490 nm)
Format: cell-based
Details: Dosage 10 μg/ml; absorbance at 490 nm; control 0.103
Respond using a number only.

// Glycogenesis (absorbance) value for S=C(Nc1ccccc1)NN1CCCCC1 [phenyl (C12H17N3S)] : 0.196

Glycogenesis (absorbance) in this record for Cc1cccc(NC(=S)NN2CCOCC2)c1 [3-methylphenyl] : 0.189

Lab note: COc1cccc(NC(=S)NN2CCOCC2)c1 [3-methoxyphenyl] gave Glycogenesis (absorbance) of 0.191

For record Cc1ccccc1NC(=S)NN1CCOCC1 [2-methylphenyl] the listed Glycogenesis (absorbance) is 0216

Reported Glycogenesis (absorbance) of S=C(Nc1ccccc1)NN1CCOCC1 [phenyl (C11H15N3OS)] : 0.301

----------
System: RAW 264.7 cells
Experiment: Measurement of anti-inflammatory action (nitrites, Griess reaction, LPS-stimulated)
Assay type: cell-based
Settings: Dosage 100 ug/ml with LPS 1 μg/ml
Classify as follows. Reported % (produced nitrites; control 0, LPS 100) greater than or equal to 50%: satisfied. Reported % (produced nitrites; control 0, LPS 100) below: not satisfied.

[Q] Does the reported % (produced nitrites; control 0, LPS 100) for "COc1cccc(NC(=S)NN2CCOCC2)c1" fall at or above the 50% mark?
[A] satisfied

[Q] API: above_or_equal(metric=% (produced nitrites; control 0, LPS 100), cutoff=50%) for item "Cc1ccccc1NC(=S)NN1CCOCC1"
[A] satisfied

[Q] Is reported % (produced nitrites; control 0, LPS 100) greater than or equal to 50% here: "S=C(Nc1ccccc1)NN1CCCCC1"
[A] satisfied

[Q] % (produced nitrites; control 0, LPS 100) >= 50% for "Cc1cccc(NC(=S)NN2CCOCC2)c1" ?
[A] satisfied

[Q] Identify whether the reported % (produced nitrites; control 0, LPS 100) of the following compound is 50% or greater: "S=C(Nc1ccc(Cl)cc1)NN1CCOCC1"
[A] not satisfied

----------
Tested on: RAW 264.7 cells
Experiment: Measurement of anti-inflammatory action (nitrites, Griess reaction, LPS-stimulated)
Assay type: cell-based
Details: Dosage 10 ug/ml with LPS 1 μg/ml
Hi there, I'd appreciate the recorded % (produced nitrites; control 0, LPS 100) for every entry that follows.
Provide only the numeric value, understood in %.

Briefly, % (produced nitrites; control 0, LPS 100) measured for Cc1ccccc1NC(=S)NN1CCOCC1 [2-methylphenyl] : 81.17

Entry Cc1cccc(NC(=S)NN2CCOCC2)c1 [3-methylphenyl] , % (produced nitrites; control 0, LPS 100) reported as 81.19

Record S=C(Nc1ccccc1)NN1CCOCC1 [phenyl (C11H15N3OS)] . Reported % (produced nitrites; control 0, LPS 100): 62.37

% (produced nitrites; control 0, LPS 100) recorded for this compound, COc1cccc(NC(=S)NN2CCOCC2)c1 [3-methoxyphenyl] , is 81.19

Summary for this compound, S=C(Nc1ccccc1)NN1CCCCC1 [phenyl (C12H17N3S)] : % (produced nitrites; control 0, LPS 100) is 75.26

Given item "S=C(Nc1ccc(Cl)cc1)NN1CCOCC1" , the value recorded as its % (produced nitrites; control 0, LPS 100) is 4.81

----------
Experiment: Measurement of lethal dose 50%
Type: in vivo, mouse
Settings: mouse, in vivo; oral, mice
Description: The number of dead animal was counted after N(4′-chlorophenyl) N′ morpholino thiocarbamide was orally administered to 10 mice per a dose in a dose of 50 mg/kg, 500 mg/kg, and 5000 mg/kg.
measure: LD50

Per the records, this molecule ( "S=C(Nc1ccc(Cl)cc1)NN1CCOCC1" ) has LD50 equal to > 5000 mg/kg
